# Tested on: soybean plants (variety S20-G7)
# Protocol: Water use (WU) of soybean plants after foliar spray
# Type: in vivo
# Measurement Context: repeated experiment (Table B2), rate not given, cumulative
Reported Total % WU 0 to 2 DAA values are given for each entry in this list.

{"columns": ["Compound", "Total % WU 0 to 2 DAA (%)"],
 "data": [
  ["CCN1C(=O)CC(C)c2cc(NS(=O)(=O)Cc3ccc(C4CC4)cc3)ccc21 (stereo not drawn)", "−45.4"],
  ["CCN1C(=O)CC(C)c2cc(NS(=O)(=O)Cc3ccc(C4CC4)cc3)cc(F)c21 (stereo not drawn)", "−50.5"],
  ["CCN1C(=O)CCc2cc(NS(=O)(=O)Cc3ccc(C4CC4)cc3)cc(F)c21", "−45.8"],
  ["CCCN1C(=O)CCc2cc(NS(=O)(=O)Cc3ccc(C)cc3)ccc21 [Quinabactin, quinabactin, reference compound]", "−16"],
  ["CCCN1C(=O)CCc2cc(NS(=O)(=O)Cc3ccc(C4CC(=O)C4(C)C)cc3)ccc21 (stereo not drawn)", "−0.7"],
  ["CCCN1C(=O)CCc2cc(NS(=O)(=O)Cc3ccc(C4CC4)cc3)cc(Cl)c21", "−22.1"],
  ["CCCN1C(=O)CCc2cc(NS(=O)(=O)Cc3ccc(C4CCC4)cc3)ccc21", "−3"],
  ["CCCN1C(=O)CCc2cc(NS(=O)(=O)Cc3ccc(C4CC4)cc3)ccc21", "−25"],
  ["CCCN1C(=O)CCc2cc(NS(=O)(=O)Cc3ccc(C4CCCC4)cc3)ccc21", "−1.4"]
]}

====

# Test system: corn plants (variety NK OCTET)
# Protocol: Water use (WU) of corn plants after foliar spray
# Assay type: in vivo
# Measurement Context: foliar spray at 500 μM, vs negative control
# Method: Compounds were tested for their effect on reducing plant water use as follows. The compounds were applied by foliar spray to 12 day old corn plants (variety NK OCTET) grown in controlled environment plant growth chambers. […] Plant water use during the day was assessed by repeated weighing of the pots in which the plants were grown before and after application of the compounds at the indicated times (expressed in days after application (DAA)). […]

{"columns": ["Compound", "Units Of Measure", "% WU 1 DAA PM"],
 "data": [
  ["CCCN1C(=O)CCc2cc(NS(=O)(=O)Cc3ccc(C4CC4)cc3)ccc21 [Compound 1.004]", "%", "−12.1"],
  ["CCN1C(=O)CCc2cc(NS(=O)(=O)Cc3ccc(C4CC4)cc3)cc(F)c21 [Compound 1.213]", "%", "−11.2"],
  ["CCN1C(=O)CC(C)c2cc(NS(=O)(=O)Cc3ccc(C4CC4)cc3)cc(F)c21 (centres unmarked) [Compound 1.220]", "%", "−14.1"],
  ["CCN1C(=O)CC(C)c2cc(NS(=O)(=O)Cc3ccc(C4CC4)cc3)ccc21 (centres unmarked) [Compound 1.178]", "%", "−9.2"],
  ["CCCN1C(=O)CCc2cc(NS(=O)(=O)Cc3ccc(C4CCC4)cc3)ccc21 [Compound 5.004]", "%", "−5.9"]
]}

Data origin: patent US10167261B2
